Quick reference: IC50 of the listed items.
- System: SARS-COV-2
- Method description: microbe, parasite or virus in culture
- Assay type: cell-based
- Condition summary: Severe acute respiratory syndrome coronavirus 2; Vero cells, 24 hours infection; read-out: SARS-COV-2 inhibition (IC50)
Where a name gives a salt, the structure may show the parent alone.

- Molecule: "COc1cc2cc3c(c(-c4cc5c(cc4OC(=O)C(C)C)OCO5)c2cc1OC)C(=O)OC3"
  Unit name: "µM"
  Cmp: "="
  IC50: 28.4
- Molecule: "COc1cc2cc3c(c(-c4ccc5c(c4)CN(C)CC5)c2cc1OC)C(=O)OC3"
  Unit name: "µM"
  Cmp: "="
  IC50: 29
- Molecule: "COc1cc2cc3c(c(-c4ccc5ncc(C)cc5c4)c2cc1OC)C(=O)OC3"
  Unit name: "µM"
  Cmp: "="
  IC50: 4.14
- Molecule: "COc1ccc2c(-c3c4c(cc5cc(OC)c(OC)cc35)COC4=O)ccnc2c1"
  Unit name: "µM"
  Cmp: ">"
  IC50: 50
- Molecule: "COc1cc2cc3c(c(-c4cnc5ccc(N6CCOCC6)nn45)c2cc1OC)C(=O)OC3"
  Unit name: "µM"
  Cmp: ">"
  IC50: 50
- Molecule: "COCCN(C)c1ccc(-c2c3c(cc4cc(OC)c(OC)cc24)COC3=O)cc1"
  Unit name: "µM"
  Cmp: "="
  IC50: 0.61
- Molecule: "COc1cc2cc3c(c(-c4cc(C)nc5c(F)cccc45)c2cc1OC)C(=O)OC3"
  Unit name: "µM"
  Cmp: ">"
  IC50: 50
- Molecule: "CCN(C)c1ccc(-c2c3c(cc4cc(OC)c(OC)cc24)COC3=O)cn1"
  Unit name: "µM"
  Cmp: "="
  IC50: 0.04
- Molecule: "COc1cc2c(OC)c3c(c(-c4ccc(N(C)[C@H]5CCc6c(cccc6OC)C5)nc4)c2cc1OC)COC3=O"
  Unit name: "µM"
  Cmp: ">"
  IC50: 50
- Molecule: "COc1cc2cc(CO)c(C(=O)NC(C)C)c(-c3cc4c(cc3O)OCO4)c2cc1OC"
  Unit name: "µM"
  Cmp: "="
  IC50: 33.4
- Molecule: "CCC(C)CNc1ncc(-c2c3c(cc4cc(OC)c(OC)cc24)COC3=O)cn1 (centres unmarked)"
  Unit name: "µM"
  Cmp: ">"
  IC50: 50
- Molecule: "COc1cc2cc3c(c(-c4cnc(N5C[C@H](C)O[C@@H](C)C5)nc4)c2cc1OC)C(=O)OC3"
  Unit name: "µM"
  Cmp: ">"
  IC50: 50
- Molecule: "COc1cc2cc3c(c(-c4cnc(OCCN5C[C@@H](C)O[C@@H](C)C5)nc4)c2cc1OC)C(=O)OC3"
  Unit name: "µM"
  Cmp: ">"
  IC50: 50
- Molecule: "COc1cc2cc3c(c(-c4cnc(N(C)C)nc4)c2cc1OC)C(=O)OC3"
  Unit name: "µM"
  Cmp: "="
  IC50: 0.16
- Molecule: "COc1cc2cc3c(c(-c4ccc(N5CCN(C)CC5)nc4)c2cc1OC)C(=O)OC3"
  Unit name: "µM"
  Cmp: "="
  IC50: 14.8
- Molecule: "COc1cc2cc3c(c(-c4cc5c(cc4OC)OCO5)c2cc1OC)C(=O)OC3"
  Unit name: "µM"
  Cmp: "="
  IC50: 16.6
- Molecule: "COc1cc2cc3c(c(-c4cnc(N5CCSCC5)nc4)c2cc1OC)C(=O)OC3"
  Unit name: "µM"
  Cmp: "="
  IC50: 2.12
- Molecule: "COc1cc2cc3c(c(N4CCN(CCO)CC4)c2cc1OC)C(=O)OC3"
  Unit name: "µM"
  Cmp: ">"
  IC50: 50
- Molecule: "COc1cc2cc3c(c(-c4cnc(N5CCC(C)CC5)nc4)c2cc1OC)C(=O)OC3 [Example 107, hydrochloride]"
  Unit name: "µM"
  Cmp: "="
  IC50: 1.41
- Molecule: "COc1cc2cc3c(c(-c4cnc(NCC5CC5)nc4)c2cc1OC)C(=O)OC3"
  Unit name: "µM"
  Cmp: "="
  IC50: 18.4
- Molecule: "COc1cc2cc3c(c(-c4cnc(N5C[C@@H](C)O[C@@H](C)C5)nc4)c2cc1OC)C(=O)OC3"
  Unit name: "µM"
  Cmp: "="
  IC50: 2.87
- Molecule: "COc1cc2cc3c(c(-c4ccc(N(C)c5nnc(C)o5)nc4)c2cc1OC)C(=O)OC3"
  Unit name: "µM"
  Cmp: ">"
  IC50: 50
- Molecule: "COc1cc2cc3c(c(-c4ccc(N5C(=O)OC[C@@H]5Cc5ccccc5)nc4)c2cc1OC)C(=O)OC3"
  Unit name: "µM"
  Cmp: "="
  IC50: 4
- Molecule: "COc1cc2cc(CO)c(C(=O)[O-])c(-c3cc4c(cc3O)OCO4)c2cc1OC.[Na+]"
  Unit name: "µM"
  Cmp: "="
  IC50: 17.8
- Molecule: "COc1cc2cc3c(c(-c4cnc(N5CCC6(CC5)OCCO6)nc4)c2cc1OC)C(=O)OC3"
  Unit name: "µM"
  Cmp: ">"
  IC50: 50
- Molecule: "COc1cc2cc3c(c(-c4ccc(N5CCOCC5)nn4)c2cc1OC)C(=O)OC3"
  Unit name: "µM"
  Cmp: ">"
  IC50: 50
- Molecule: "COc1cc2cc3c(c(-c4ccc5c(N6CCNCC6)ccnc5c4)c2cc1OC)C(=O)OC3"
  Unit name: "µM"
  Cmp: "="
  IC50: 23.8
- Molecule: "COc1cc2cc3c(c(-c4cnc(N(C)CCC5OCCO5)nc4)c2cc1OC)C(=O)OC3"
  Unit name: "µM"
  Cmp: "="
  IC50: 6.89
- Molecule: "CNc1ccc(-c2c3c(cc4cc(OC)c(OC)cc24)COC3=O)cn1"
  Unit name: "µM"
  Cmp: "="
  IC50: 2.84
- Molecule: "CCOC(=O)[C@@H]1CCCN1c1ncc(-c2c3c(cc4cc(OC)c(OC)cc24)COC3=O)cn1"
  Unit name: "µM"
  Cmp: "="
  IC50: 31.3
- Molecule: "COc1cc2cc3c(c(-c4cc5c(cc4OC(=O)OC4CCCCC4)OCO5)c2cc1OC)C(=O)OC3"
  Unit name: "µM"
  Cmp: "="
  IC50: 5.75
- Molecule: "COc1cc2cc3c(c(-c4ccc5c(c4)OC(F)(F)O5)c2cc1OC)C(=O)OC3"
  Unit name: "µM"
  Cmp: "="
  IC50: 0.18

Numbers sourced from patent US20240368104A1.
